target-or-test-system: MS2 coat protein, dlFG mutant (Escherichia phage MS2, UniProt P03612, del68-81insG)
test-summary: 4 mM Mg2+; FMN 200 uM; RNA-MaP array; 100 mM Tris-HCl pH 7.5, 80 mM KCl, 4 mM MgCl2, 0.1 mg/mL BSA, 1 mM DTT, 0.01 mg/mL yeast tRNA, 0.01% Tween-20; protein 1.5 nM to 3 uM; 37 C (Table S3)
measurement-context: chain copies: 2; label: tethered by stalled RNA polymerase
value-kind: Kd (nM)

[[record]]
binder = "Eterna 5811984 (Exclusion 6) (ssRNA) RNA: CUUAGUAUCUAGGAUAUCUAGUACAUAGUAUCUAGAGAAGGAGAUACAUGAGGAUCACCCAUGUUCUGUGUUCU"
observed = 65.6

[[record]]
binder = "Eterna 6082084 (Exclusion 3) (ssRNA) RNA: AACACGUGAGGAUAUACAUGAGGAUCACCCAUGUUGGUACAAUCCUGUCCGACUAUCCGUAGAAGGCAUUGACU"
observed = 34.1

